- Assay text: Cytotoxicity against human HeLa67 cell after 3 days by XTT assay
- Format: cell-based
- Applied conditions: HeLa67 cells
Property measured: CC50 at 72 h (µM)

CC(C)(C)c1ccc(C(=O)N2CCN(C(=O)C(=O)c3c[nH]c4ccccc34)CC2)cc1 = 31
CCCc1ccc(C(=O)N2CCN(C(=O)C(=O)c3c[nH]c4ccccc34)CC2)cc1 = 48
O=C(C(=O)N1CCN(C(=O)c2ccc(F)cc2)CC1)c1c[nH]c2ccccc12 = 280
O=C(C(=O)N1CCN(C(=O)c2cccc(Br)c2)CC1)c1c[nH]c2ccccc12 = 76
O=C(C(=O)N1CCN(C(=O)c2cccc(Cl)c2)CC1)c1c[nH]c2ccccc12 = 117
O=C(C(=O)N1CCN(C(=O)c2ccccc2F)CC1)c1c[nH]c2ccccc12 = 101
O=C(C(=O)N1CCN(C(=O)c2cccc(Cl)c2Cl)CC1)c1c[nH]c2ccccc12 = 235
O=C(C(=O)N1CCN(C(=O)c2ccc(Cl)c(Cl)c2)CC1)c1c[nH]c2ccccc12 = 123
O=C(C(=O)N1CCN(C(=O)c2ccc(Cl)cc2Cl)CC1)c1c[nH]c2ccccc12 = 111
COc1ccc(C(=O)N2CCN(C(=O)C(=O)c3c[nH]c4ccccc34)CC2)cc1 = 129
Cc1ccsc1C(=O)N1CCN(C(=O)C(=O)c2c[nH]c3cccc(F)c23)CC1 = 260
O=C(C(=O)N1CCN(C(=O)c2ccccc2O)CC1)c1c[nH]c2ccccc12 = 194
O=C(C(=O)N1CCN(C(=O)c2sccc2Br)CC1)c1c[nH]c2cccc(F)c12 = 69.7
O=C(C(=O)N1CCN(C(=O)c2ccc(Cl)cc2)CC1)c1c[nH]c2ccccc12 = 92

###

- Assay text: Cytotoxicity against human HeLa67 cell after 3 days by XTT assay
- Type: cell-based
- Applied conditions: HeLa67 cells
Readings of CC50 at 72 h for the listed compounds
Property measured: CC50 at 72 h (µM)

N#Cc1ccoc1C(=O)N1CCN(C(=O)C(=O)c2c[nH]c3cccc(F)c23)CC1 = 187
O=C(C(=O)N1CCN(C(=O)c2sccc2Cl)CC1)c1c[nH]c2cccc(F)c12 = 50.5

###

Readings of CC50 at 72 h for the listed compounds
- Assay text: Cytotoxicity against human HeLa67 cell after 3 days by XTT assay
- Assay type: cell-based
- Applied conditions: HeLa67 cells
Property measured: CC50 at 72 h (µM)

CN(C)c1cccc(C(=O)N2CCN(C(=O)C(=O)c3c[nH]c4ccccc34)CC2)c1 = 230
O=C(C(=O)N1CCN(C(=O)c2occc2Cl)CC1)c1c[nH]c2cccc(F)c12 = 250
O=C(C(=O)N1CCN(C(=O)c2occc2Br)CC1)c1c[nH]c2cccc(F)c12 = 236
O=C(C(=O)N1CCN(C(=O)c2ccc(O)cc2)CC1)c1c[nH]c2ccccc12 = 136

###

Readings of CC50 at 72 h for the listed compounds
- Assay text: Cytotoxicity against human HeLa67 cell after 3 days by XTT assay
- Assay type: cell-based
- Applied conditions: HeLa67 cells
Property measured: CC50 at 72 h

O=C(C(=O)N1CCN(C(=O)c2cc(F)c(F)c(F)c2F)CC1)c1c[nH]c2ccccc12 = > 300 µM
CN(C)c1ccc(C(=O)N2CCN(C(=O)C(=O)c3c[nH]c4ccccc34)CC2)cc1 = > 300 µM
O=C(C(=O)N1CCN(C(=O)c2ccccc2Br)CC1)c1c[nH]c2ccccc12 = > 300 µM
O=C(C(=O)N1CCN(C(=O)c2cscn2)CC1)c1c[nH]c2cccc(F)c12 = > 250 µM
COc1ccccc1C(=O)N1CCN(C(=O)C(=O)c2c[nH]c3ccccc23)CC1 = > 300 µM
O=C(C(=O)N1CCN(C(=O)c2cccnc2)CC1)c1c[nH]c2cccc(F)c12 = > 300 µM
CN(C)c1ccccc1C(=O)N1CCN(C(=O)C(=O)c2c[nH]c3ccccc23)CC1 = 89 µM
O=C(C(=O)N1CCN(C(=O)c2ccsc2)CC1)c1c[nH]c2cccc(F)c12 = > 300 µM
O=C(C(=O)N1CCN(C(=O)c2cccc(F)c2)CC1)c1c[nH]c2ccccc12 = 200 µM
O=C(C(=O)N1CCN(C(=O)CC2CCCCC2)CC1)c1c[nH]c2ccccc12 = 158 µM

###

- Assay text: Cytotoxicity against human HeLa67 cell after 3 days by XTT assay
- Format: cell-based
- Applied conditions: HeLa67 cells
Readings of CC50 at 72 h for the listed molecules
Property measured: CC50 at 72 h

O=C(C(=O)N1CCN(C(=O)c2ccno2)CC1)c1c[nH]c2cccc(F)c12 = > 300 µM
Cc1nc(C(=O)N2CCN(C(=O)C(=O)c3c[nH]c4cccc(F)c34)CC2)cs1 = > 300 µM
Cc1ccc(C(=O)N2CCN(C(=O)C(=O)c3c[nH]c4ccccc34)CC2)cc1 = > 99 µM

###

- Assay text: Cytotoxicity against human HeLa67 cell after 3 days by XTT assay
- Assay type: cell-based
- Applied conditions: HeLa67 cells
Property measured: CC50 at 72 h

O=C(C(=O)N1CCN(C(=O)c2cccnc2)CC1)c1c[nH]c2ccccc12 = > 300 µM
O=C(C(=O)N1CCN(C(=O)c2cccs2)CC1)c1c[nH]c2cccc(F)c12 = > 300 µM
O=C(C(=O)N1CCN(C(=O)c2cc(F)c(F)cc2F)CC1)c1c[nH]c2ccccc12 = > 300 µM
O=C(C(=O)N1CCN(C(=O)c2cccc(Cl)c2F)CC1)c1c[nH]c2ccccc12 = > 300 µM
O=C(C(=O)N1CCN(C(=O)c2ccncc2)CC1)c1c[nH]c2cccc(F)c12 = > 205 µM
O=C(C(=O)N1CCN(C(=O)c2ccccn2)CC1)c1c[nH]c2ccccc12 = > 300 µM
